# test-system: T1, TNFR1 (Homo sapiens, UniProt P19438)
# T1 chain: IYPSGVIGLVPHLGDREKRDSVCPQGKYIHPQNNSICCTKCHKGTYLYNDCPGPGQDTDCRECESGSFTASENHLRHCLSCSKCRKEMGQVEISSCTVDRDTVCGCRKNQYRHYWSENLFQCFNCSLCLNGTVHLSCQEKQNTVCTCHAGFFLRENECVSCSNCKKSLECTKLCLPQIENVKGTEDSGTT
# assay-info: yeast display SC50
apparent Kd (screen) values by entry

{"binder": "A69P (designed binder) MTLQELLREEALRRAEAEAFRYALELLAEKFPEQKEYLLDLAEEIESQIRSLSGVDVEDVRKFLDKEWPWVKELLAEHPAELAEVEAARAARLAELRAEVEAKVAA", "readout-unit": "nM", "apparent Kd (screen)": 16.7}
{"binder": "E18S (designed binder) MTLQELLREEALRRAEASAFRYALELLAEKFPEQKEYLLDLAEEIESQIRSLSGVDVEDVRKFLDKEWAWVKELLAEHPAELAEVEAARAARLAELRAEVEAKVAA", "readout-unit": "nM", "apparent Kd (screen)": 0.405}
{"binder": "W70S (designed binder) MTLQELLREEALRRAEAEAFRYALELLAEKFPEQKEYLLDLAEEIESQIRSLSGVDVEDVRKFLDKEWASVKELLAEHPAELAEVEAARAARLAELRAEVEAKVAA", "readout-unit": "nM", "apparent Kd (screen)": 12.5}
{"binder": "L93R (designed binder) MTLQELLREEALRRAEAEAFRYALELLAEKFPEQKEYLLDLAEEIESQIRSLSGVDVEDVRKFLDKEWAWVKELLAEHPAELAEVEAARAARRAELRAEVEAKVAA", "readout-unit": "nM", "apparent Kd (screen)": 0.869}
{"binder": "V60K (designed binder) MTLQELLREEALRRAEAEAFRYALELLAEKFPEQKEYLLDLAEEIESQIRSLSGVDVEDKRKFLDKEWAWVKELLAEHPAELAEVEAARAARLAELRAEVEAKVAA", "readout-unit": "nM", "apparent Kd (screen)": 3}
{"binder": "L75V (designed binder) MTLQELLREEALRRAEAEAFRYALELLAEKFPEQKEYLLDLAEEIESQIRSLSGVDVEDVRKFLDKEWAWVKELVAEHPAELAEVEAARAARLAELRAEVEAKVAA", "readout-unit": "nM", "apparent Kd (screen)": 0.593}
{"binder": "E67C (designed binder) MTLQELLREEALRRAEAEAFRYALELLAEKFPEQKEYLLDLAEEIESQIRSLSGVDVEDVRKFLDKCWAWVKELLAEHPAELAEVEAARAARLAELRAEVEAKVAA", "readout-unit": "nM", "apparent Kd (screen)": 5.84}
{"binder": "A106G (designed binder) MTLQELLREEALRRAEAEAFRYALELLAEKFPEQKEYLLDLAEEIESQIRSLSGVDVEDVRKFLDKEWAWVKELLAEHPAELAEVEAARAARLAELRAEVEAKVAG", "readout-unit": "nM", "apparent Kd (screen)": 0.956}
